This listing pairs compounds with measured inhibition at 1 µM.
# target desc: human μ-opiate receptor (Homo sapiens, UniProt P35372)
# Sequence (P35372 whole entry): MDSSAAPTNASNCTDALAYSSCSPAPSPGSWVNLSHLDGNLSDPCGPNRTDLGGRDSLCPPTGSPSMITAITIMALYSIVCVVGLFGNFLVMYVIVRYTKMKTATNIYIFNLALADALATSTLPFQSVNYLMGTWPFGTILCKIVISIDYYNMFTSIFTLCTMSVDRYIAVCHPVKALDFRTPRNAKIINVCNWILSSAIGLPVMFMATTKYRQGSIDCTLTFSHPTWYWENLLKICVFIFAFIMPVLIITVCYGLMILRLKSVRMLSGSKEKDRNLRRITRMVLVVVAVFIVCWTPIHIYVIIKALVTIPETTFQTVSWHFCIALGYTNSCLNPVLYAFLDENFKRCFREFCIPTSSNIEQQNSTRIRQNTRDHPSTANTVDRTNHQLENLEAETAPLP
# run description: Affinity for the human μ-opiate receptor ([3H]-naloxone displacement, SPA, CHO-K1 membrane preparation)
# Assay type: binding
# condition details: read-out: μ-Opioid receptor, % inhibition [1 μM]
Structures can show the parent of a compound that is named as a salt.
Reply numerically in %, unit not repeated.

Guide cases for inhibition at 1 µM, answers given:
CN(C)C(c1cccs1)C1CCC(CNC(=O)c2c(F)cccc2F)CC1 (centres unmarked) :: 97
CN(C)C(c1ccccc1)C1CCC(CCNC(=O)c2ccccc2Cl)CC1 (centres unmarked) :: 96
COc1cccc(C(=O)NCCC2CCC(C(c3ccc(F)cc3)N(C)C)CC2)c1 (centres unmarked) :: 83
CCCc1ccc(C(=O)NCCC2CCC(C(c3cccs3)N(C)C)CC2)cc1 (centres unmarked) :: 96
COc1c(C(=O)NCC2CCC(C(c3cccc(F)c3)N(C)C)CC2)csc1Cl (centres unmarked) :: 99
CN(C)C(c1ccccc1)C1CCC(NC(=O)c2cc(F)ccc2C(F)(F)F)CC1 (centres unmarked) :: 73
CN(C)C(c1cccc(F)c1)C1CCC(CCNC(=O)c2ccc(F)cc2)CC1 (centres unmarked) :: 84

Pending compound:
Would you mind telling me what inhibition at 1 µM value was observed for CC(=O)N(CCCc1ccccc1)C1CCC(C(c2ccccc2)N(C)C)CC1 (centres unmarked) [compound 95, hydrochloride] ?
95

---

# target desc: Noradrenaline (NA) reuptake (Rattus norvegicus)
# Construct: synaptosomes are freshly isolated from areas of rat brain; from tissue; host or cells: rat hypothalamus synaptosomes (P2 fraction)
# Sequence (Q63380 1-617): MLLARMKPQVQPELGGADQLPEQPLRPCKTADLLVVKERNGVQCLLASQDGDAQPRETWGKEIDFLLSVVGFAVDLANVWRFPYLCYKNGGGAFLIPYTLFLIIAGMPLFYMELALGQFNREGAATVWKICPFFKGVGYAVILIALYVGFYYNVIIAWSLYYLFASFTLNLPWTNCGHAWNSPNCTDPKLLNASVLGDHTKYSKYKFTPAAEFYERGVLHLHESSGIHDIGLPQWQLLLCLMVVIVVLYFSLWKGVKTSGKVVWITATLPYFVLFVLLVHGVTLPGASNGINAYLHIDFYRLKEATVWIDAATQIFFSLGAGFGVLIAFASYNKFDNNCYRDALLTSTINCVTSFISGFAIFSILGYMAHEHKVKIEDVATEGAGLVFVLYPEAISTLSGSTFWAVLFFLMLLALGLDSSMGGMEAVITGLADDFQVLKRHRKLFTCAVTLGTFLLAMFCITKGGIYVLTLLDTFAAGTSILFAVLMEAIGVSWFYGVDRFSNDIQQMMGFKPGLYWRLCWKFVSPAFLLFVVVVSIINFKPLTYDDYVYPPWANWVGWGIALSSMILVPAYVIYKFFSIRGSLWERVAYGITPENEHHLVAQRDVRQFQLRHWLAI
# run description: Noradrenaline (NA) reuptake inhibition in rat brain synaptosomes (hypothalamus, P2 fraction)
# Format: biochemical
# condition details: read-out: NA reuptake, % inhibition [10 μM]
Where a name gives a salt, the structure may show the parent alone.
I would appreciate it if you labelled entries MET when inhibition at 10 µM is 80% or higher, otherwise NOT MET.

CN(C)C(c1cccc(F)c1)C1CCC(CO)CC1 (centres unmarked) [compound 119] :: MET
CN(C)C(c1cccc(F)c1)C1CCC(CC=O)CC1 (centres unmarked) [compound 52] :: MET

Is reported inhibition at 10 µM greater than or equal to 80% here: CN(C)C(c1ccccc1)C1CCC(CCCO)CC1 (centres unmarked) [compound 134]
MET

Is reported inhibition at 10 µM greater than or equal to 80% here: CCOC(=O)C=CC1CCC(C(c2ccccc2)N(C)C)CC1 (centres unmarked) [compound 132]
MET

Is reported inhibition at 10 µM greater than or equal to 80% here: CN(C)C(c1cccs1)C1CCC(CC=O)CC1 (centres unmarked) [compound 67]
MET

Is reported inhibition at 10 µM greater than or equal to 80% here: CN(C)C(CCc1ccccc1)C1CCC(CN)CC1 (centres unmarked) [compound 45]
MET

Is reported inhibition at 10 µM greater than or equal to 80% here: CN(C)C(c1cccc(F)c1)C1CCC(CN)CC1 (centres unmarked) [compound 36]
MET

Is reported inhibition at 10 µM greater than or equal to 80% here: CN(C)C(c1ccccc1)C1CCC(O)(Cc2ccccc2)CC1 (centres unmarked) [compound 147, hydrochloride]
NOT MET

Is reported inhibition at 10 µM greater than or equal to 80% here: CN(C)C(c1ccccc1)[C@H]1CC[C@H](CCc2ccccc2)CC1 (relative stereo) [compound 146, hydrochloride]
MET

Is reported inhibition at 10 µM greater than or equal to 80% here: CN(C)C(c1ccccc1)C1CCC(NS(=O)(=O)c2ccc(Cl)cc2)CC1 (centres unmarked) [compound 106, hydrochloride]
NOT MET

Is reported inhibition at 10 µM greater than or equal to 80% here: CN(C)C(c1ccc(F)cc1)C1CCC(CCCO)CC1 (centres unmarked) [compound 137]
MET

Is reported inhibition at 10 µM greater than or equal to 80% here: CN(C)C(c1ccc(F)cc1)C1CCC(O)CC1 (centres unmarked) [compound 112]
NOT MET

Is reported inhibition at 10 µM greater than or equal to 80% here: CN(C)C(c1ccc(Cl)cc1)C1CCC(O)CC1 (centres unmarked) [compound 114]
MET

Is reported inhibition at 10 µM greater than or equal to 80% here: COc1ccc(NC(=O)NC2CCC(C(c3ccccc3)N(C)C)CC2)cc1 (centres unmarked) [compound 82]
MET

Is reported inhibition at 10 µM greater than or equal to 80% here: CCOC(=O)CC1CCC(C(c2ccccc2)N(C)C)CC1 (centres unmarked) [compound 124]
NOT MET

Is reported inhibition at 10 µM greater than or equal to 80% here: CN(C)C(c1ccc(Cl)cc1)C1CCC(CC=O)CC1 (centres unmarked) [compound 55]
MET

Is reported inhibition at 10 µM greater than or equal to 80% here: CN(C)C(c1cccs1)C1CCC(CN)CC1 (centres unmarked) [compound 42]
MET

Cited source for all entries: patent US8058475B2
